# System: SK-OV-3 cells
# test: Growth inhibition of ovarian cancer cell line SK-OV-3 (MTT assay, cell survival)
# Format: cell-based
# condition_description: Homo sapiens, drug concentration that results in 50% cell survival, 72 hrs incubation, reported as ranges
measured_attribute: CC50

Some compounds with known CC50 results, for comparison:
> print(dat)
                                   compound    system.name       result
1  CN[C@@H](C)C(=O)N[C@H](C(=O)N1CC[C@@H]2[C@H]1[C@@H](c1c[nH]c3cc(F)ccc13)CN2C)C1CCCCC1  SK-OV-3 cells  0.1 to 1 µM
2  CN[C@@H](C)C(=O)N[C@H](C(=O)N1CC[C@H]2NC[C@H](c3cn(Cc4ccccc4)c4cc(F)ccc34)[C@H]21)C1CCCCC1  SK-OV-3 cells  0.1 to 1 µM

Now consider a different compound.
Req: Quick one: CC50 of CC(=O)N1C[C@H](c2c[nH]c3cc(F)ccc23)[C@@H]2[C@H]1CCN2C(=O)[C@@H](NC(=O)[C@H](C)N)C1CCCCC1 ?
Resp: 1 to 10 µM
